Reported inhibition values are given for each entry in this list.
biological target: Protein deacetylase HDAC6 (Homo sapiens) (UniProt Q9UBN7); conditions: at 10 µM
Counter-ions that a name gives are not always drawn.
readout-kind: inhibition

INSERT INTO assay_data (molecule, target_or_system, experimental_value) VALUES
  ('CCN(CC)c1ccc(/C=N/NC(=O)c2ccc(O)cc2)cc1', 'Protein deacetylase HDAC6 (Homo sapiens) (UniProt Q9UBN7)', '94.2%'),
  ('COc1cc2c(=O)c(-c3ccc(O)cc3)coc2cc1O', 'Protein deacetylase HDAC6 (Homo sapiens) (UniProt Q9UBN7)', '99.3%'),
  ('Cc1cc([C@@H](C)Nc2ccccc2C(=O)O)c2nc(N3CCOCC3)cc(=O)n2c1', 'Protein deacetylase HDAC6 (Homo sapiens) (UniProt Q9UBN7)', '100%'),
  ('CN(C)c1ccc(/C=C2\C(=O)Nc3ccccc32)cc1', 'Protein deacetylase HDAC6 (Homo sapiens) (UniProt Q9UBN7)', '110%'),
  ('Nc1ccc(/N=N/c2ccccc2)c(N)n1', 'Protein deacetylase HDAC6 (Homo sapiens) (UniProt Q9UBN7)', '106%'),
  ('O=c1c(O)c(-c2ccc(O)c(O)c2)oc2cc(O)cc(O)c12', 'Protein deacetylase HDAC6 (Homo sapiens) (UniProt Q9UBN7)', '108%'),
  ('c1ccc(CCNc2nc(-c3ccccc3)cs2)cc1', 'Protein deacetylase HDAC6 (Homo sapiens) (UniProt Q9UBN7)', '96.5%'),
  ('CC(C)(C)c1ccc(C(=O)Nc2cn3cc(-n4ccnc4)ccc3n2)cc1', 'Protein deacetylase HDAC6 (Homo sapiens) (UniProt Q9UBN7)', '67.2%'),
  ('O=C(O)c1cccc(-c2noc(-c3ccccc3F)n2)c1', 'Protein deacetylase HDAC6 (Homo sapiens) (UniProt Q9UBN7)', '101%'),
  ('O=C(c1ccc(/C=C/c2n[nH]c3ccccc23)cc1)N1CCNCC1', 'Protein deacetylase HDAC6 (Homo sapiens) (UniProt Q9UBN7)', '84.1%'),
  ('O=C(O)[C@@H](c1ccc(OCc2ccc3ccccc3n2)cc1)C1CCCC1', 'Protein deacetylase HDAC6 (Homo sapiens) (UniProt Q9UBN7)', '92.6%'),
  ('Cc1nc2ccc(NC(=O)Nc3ccnc4cccnc34)cc2o1', 'Protein deacetylase HDAC6 (Homo sapiens) (UniProt Q9UBN7)', '95.3%'),
  ('Cn1c(/C=C/C(=O)NO)ccc1/C=C/C(=O)c1cccc(F)c1', 'Protein deacetylase HDAC6 (Homo sapiens) (UniProt Q9UBN7)', '84.9%'),
  ('COc1ccc(N(C(=O)Oc2c(C)cccc2C)c2ccnc(Nc3ccc(N4CCN(C)CC4)cc3)n2)c(OC)c1', 'Protein deacetylase HDAC6 (Homo sapiens) (UniProt Q9UBN7)', '-5.43%'),
  ('COc1cc(OC)c2c(=O)[nH]c(-c3cc(C)c(OCCO)c(C)c3)nc2c1', 'Protein deacetylase HDAC6 (Homo sapiens) (UniProt Q9UBN7)', '86.9%'),
  ('CN(C)CCCN1c2ccccc2Sc2ccc(C(F)(F)F)cc21 [TRIFLUPROMAZINE HYDROCHLORIDE]', 'Protein deacetylase HDAC6 (Homo sapiens) (UniProt Q9UBN7)', '77.5%'),
  ('O=c1c(-c2ccc(O)cc2)coc2cc(O)cc(O)c12', 'Protein deacetylase HDAC6 (Homo sapiens) (UniProt Q9UBN7)', '101%'),
  ('CN(C)c1ccc(C(=O)NCCCCCCC(=O)NO)cc1', 'Protein deacetylase HDAC6 (Homo sapiens) (UniProt Q9UBN7)', '102%'),
  ('O=C(NO)c1ccc2[nH]c(=O)c(CCCc3ccccc3)nc2c1', 'Protein deacetylase HDAC6 (Homo sapiens) (UniProt Q9UBN7)', '100%'),
  ('Cc1cccc(Nc2nc(-c3ccncc3)cs2)c1', 'Protein deacetylase HDAC6 (Homo sapiens) (UniProt Q9UBN7)', '81.1%'),
  ('O=C1NC(=O)/C(=C/c2ccc(-c3ccc(F)cc3O)o2)S1', 'Protein deacetylase HDAC6 (Homo sapiens) (UniProt Q9UBN7)', '94.9%'),
  ('O=C(/C=C/c1ccccc1)NCCO', 'Protein deacetylase HDAC6 (Homo sapiens) (UniProt Q9UBN7)', '50.5%'),
  ('COc1cc(NC(=O)c2ccccn2)ccc1Cl', 'Protein deacetylase HDAC6 (Homo sapiens) (UniProt Q9UBN7)', '110%'),
  ('N#C/C(=C\c1ccc(O)c(O)c1)C(=O)Nc1ccccc1', 'Protein deacetylase HDAC6 (Homo sapiens) (UniProt Q9UBN7)', '58.9%'),
  ('Cc1cc(Cl)ccc1OCCCC(=O)NO', 'Protein deacetylase HDAC6 (Homo sapiens) (UniProt Q9UBN7)', '96.5%'),
  ('O=C1c2ccccc2-c2n[nH]c3cccc1c23', 'Protein deacetylase HDAC6 (Homo sapiens) (UniProt Q9UBN7)', '85%'),
  ('O=c1cc(-c2ccc(O)cc2)oc2cc(O)cc(O)c12', 'Protein deacetylase HDAC6 (Homo sapiens) (UniProt Q9UBN7)', '105%'),
  ('NS(=O)(=O)Oc1ccc2c3c(c(=O)oc2c1)CCCCC3', 'Protein deacetylase HDAC6 (Homo sapiens) (UniProt Q9UBN7)', '87.9%'),
  ('COc1ccc([C@@H]2CC(=O)c3c(O)cc(O)cc3O2)cc1O', 'Protein deacetylase HDAC6 (Homo sapiens) (UniProt Q9UBN7)', '82.8%'),
  ('O=c1c2ccccc2nc2n1CCc1c-2[nH]c2ccccc12', 'Protein deacetylase HDAC6 (Homo sapiens) (UniProt Q9UBN7)', '99.5%'),
  ('O=c1c2ccccc2[se]n1-c1ccccc1', 'Protein deacetylase HDAC6 (Homo sapiens) (UniProt Q9UBN7)', '3.77%'),
  ('CCCCc1nc2cc(/C=C/C(=O)NO)ccc2n1CCN(CC)CC', 'Protein deacetylase HDAC6 (Homo sapiens) (UniProt Q9UBN7)', '83.5%'),
  ('O=c1c(-c2ccc(O)cc2)coc2cc(O)ccc12', 'Protein deacetylase HDAC6 (Homo sapiens) (UniProt Q9UBN7)', '101%'),
  ('CC(C)Oc1ccc2c(=O)c(-c3ccccc3)coc2c1', 'Protein deacetylase HDAC6 (Homo sapiens) (UniProt Q9UBN7)', '97%'),
  ('CC(C(=O)O)c1ccc(N2Cc3ccccc3C2=O)cc1 (centres undefined)', 'Protein deacetylase HDAC6 (Homo sapiens) (UniProt Q9UBN7)', '99.7%'),
  ('O=C(Nc1ccc([N+](=O)[O-])cc1O)Nc1ccccc1Br', 'Protein deacetylase HDAC6 (Homo sapiens) (UniProt Q9UBN7)', '107%'),
  ('CCS(=O)(=O)c1ccc2oc(-c3ccc4ccccc4c3)nc2c1', 'Protein deacetylase HDAC6 (Homo sapiens) (UniProt Q9UBN7)', '100%'),
  ('Oc1ccc(OCc2ccccc2)cc1', 'Protein deacetylase HDAC6 (Homo sapiens) (UniProt Q9UBN7)', '86.6%'),
  ('CS(=O)(=O)c1ccc(-c2cn3ccccc3n2)cc1', 'Protein deacetylase HDAC6 (Homo sapiens) (UniProt Q9UBN7)', '104%'),
  ('O=c1sn(-c2cccc3ccccc23)c(=O)n1Cc1ccccc1', 'Protein deacetylase HDAC6 (Homo sapiens) (UniProt Q9UBN7)', '87.4%'),
  ('O=C1Nc2ccccc2/C1=C1/Nc2ccccc2/C1=N\O', 'Protein deacetylase HDAC6 (Homo sapiens) (UniProt Q9UBN7)', '108%'),
  ('O=S(=O)(O)c1ccc2[nH]c(-c3ccccc3)nc2c1', 'Protein deacetylase HDAC6 (Homo sapiens) (UniProt Q9UBN7)', '80.7%'),
  ('c1ccc(-c2n[nH]c3c2oc2ccccc23)cc1', 'Protein deacetylase HDAC6 (Homo sapiens) (UniProt Q9UBN7)', '95.3%'),
  ('N#C/C(=C\c1ccc(O)c(O)c1)C(=O)NCCCc1ccccc1', 'Protein deacetylase HDAC6 (Homo sapiens) (UniProt Q9UBN7)', '33.8%');

====

Biological target: UniProt Q9UBN7
Sequence (whole entry): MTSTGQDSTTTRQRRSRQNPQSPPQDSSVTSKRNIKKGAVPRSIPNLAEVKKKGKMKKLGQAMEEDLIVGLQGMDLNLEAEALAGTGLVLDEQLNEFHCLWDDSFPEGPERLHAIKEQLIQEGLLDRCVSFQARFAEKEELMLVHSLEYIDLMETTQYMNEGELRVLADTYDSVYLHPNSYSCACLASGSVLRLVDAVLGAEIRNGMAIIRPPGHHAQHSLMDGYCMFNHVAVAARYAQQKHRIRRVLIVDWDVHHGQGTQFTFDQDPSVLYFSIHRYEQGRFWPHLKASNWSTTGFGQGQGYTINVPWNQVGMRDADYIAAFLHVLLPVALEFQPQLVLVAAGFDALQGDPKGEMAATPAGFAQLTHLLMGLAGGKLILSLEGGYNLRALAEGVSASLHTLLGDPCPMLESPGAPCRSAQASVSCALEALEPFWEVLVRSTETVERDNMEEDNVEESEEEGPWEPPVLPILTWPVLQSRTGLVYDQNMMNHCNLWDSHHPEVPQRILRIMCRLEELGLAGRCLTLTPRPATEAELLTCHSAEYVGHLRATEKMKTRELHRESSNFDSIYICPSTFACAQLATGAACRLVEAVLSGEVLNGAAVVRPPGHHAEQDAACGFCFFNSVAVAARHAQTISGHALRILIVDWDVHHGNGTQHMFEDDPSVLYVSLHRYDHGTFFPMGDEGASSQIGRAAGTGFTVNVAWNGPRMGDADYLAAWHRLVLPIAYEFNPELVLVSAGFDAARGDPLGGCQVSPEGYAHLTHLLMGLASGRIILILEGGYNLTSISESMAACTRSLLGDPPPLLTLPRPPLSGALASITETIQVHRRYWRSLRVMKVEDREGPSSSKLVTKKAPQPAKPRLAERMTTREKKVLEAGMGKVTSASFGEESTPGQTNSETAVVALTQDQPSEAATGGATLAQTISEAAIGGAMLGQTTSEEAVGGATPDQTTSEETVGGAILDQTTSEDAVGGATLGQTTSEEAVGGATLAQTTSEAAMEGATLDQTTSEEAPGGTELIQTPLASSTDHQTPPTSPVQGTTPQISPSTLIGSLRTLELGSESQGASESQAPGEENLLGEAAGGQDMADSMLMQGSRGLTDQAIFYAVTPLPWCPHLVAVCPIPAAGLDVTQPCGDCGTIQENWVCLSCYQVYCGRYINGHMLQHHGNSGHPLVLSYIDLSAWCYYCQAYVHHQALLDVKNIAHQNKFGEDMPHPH
Conditions: at 10 µM
Reported inhibition values are given for each entry in this list.
readout-kind: inhibition (%)

INSERT INTO assay_data (compound, readout_kind, experimental_value) VALUES
  ('CC(C)Nc1nc2cc(Cl)c(Cl)cc2n1[C@H]1O[C@@H](CO)[C@H](O)[C@@H]1O [MARIBAVIR]', 'inhibition', 97.7),
  ('Cc1ccc(O)c(/N=N/c2ccccc2)n1', 'inhibition', 112),
  ('O=C(O)CNC(=O)c1c(O)c2ccccc2n(Cc2ccccc2)c1=O', 'inhibition', 73.4),
  ('N#Cc1cc(F)cc(-c2nc(-c3ccc(F)cn3)no2)c1', 'inhibition', 55.6),
  ('COc1cc2ncc(-c3ccccc3)nc2cc1OC', 'inhibition', 109),
  ('Cc1nc2c(OCc3ccccc3)cccn2c1CC#N', 'inhibition', 83.6),
  ('NC(=O)Nc1sc(-c2ccc(F)cc2)cc1C(N)=O', 'inhibition', 88.8),
  ('O=C(Nc1ccccc1C(=O)Nc1ccc(CCO)cc1)c1ccc([N+](=O)[O-])cc1', 'inhibition', 84.6),
  ('O=c1c(O)c(-c2ccc(O)cc2)oc2cc(O)cc(O)c12 [KAEMPFEROL]', 'inhibition', 102),
  ('O=C(CCCCCN1C(=O)c2cccc3cccc(c23)C1=O)NO', 'inhibition', 104),
  ('O=C(Nc1ccc(O)cc1)c1ccccc1O', 'inhibition', 100),
  ('Cc1ccc(F)c(NC(=O)Nc2ccc(-c3cccc4[nH]nc(N)c34)cc2)c1 [LINIFANIB]', 'inhibition', 103),
  ('C/N=c1/nc(-c2ccccc2)n(-c2ccccc2)s1', 'inhibition', 81.7),
  ('Cc1cn([C@H]2C=C[C@@H](CO)O2)c(=O)[nH]c1=O', 'inhibition', 19.5),
  ('CCOc1ccc(S(=O)(=O)O)c2cccnc12', 'inhibition', -1.18),
  ('O=c1c2c[nH]c3ccccc3c-2nn1-c1ccc(Cl)cc1', 'inhibition', 106),
  ('Cc1cccc(/C=C/c2ccccc2)n1', 'inhibition', 111),
  ('CCN(CC)c1ccc(C(=C2C=CC(=[N+](CC)CC)C=C2)c2ccccc2)cc1', 'inhibition', 105),
  ('CC(=O)Oc1ccccc1C(=O)Nc1ncc([N+](=O)[O-])s1', 'inhibition', 110),
  ('C[C@@H]1CC(=O)c2c(ccc3c2C(=O)c2cccc(O)c2C3=O)C1', 'inhibition', 105),
  ('FC(F)(F)c1cc(NC(=S)Nc2ccc(Br)cc2-c2nnn[nH]2)cc(C(F)(F)F)c1', 'inhibition', 31.7),
  ('O=C(NC1CC1)c1cc(-c2cccs2)on1', 'inhibition', 70.5),
  ('Cc1c(CN(C)C(=O)/C=C/c2cnc3c(c2)CCC(=O)N3)oc2ccccc12', 'inhibition', 0.5);
